The origin of these recorded values is paper PMC6321124.

test system: Tricophyton rubrum (KCTC 6345); settings: KCTC 6345, 48 h, pH 6
Residues, ends and D or L forms follow the SMILES beside them.

| molecule | assayed system | MIC, µM |
| --- | --- | --- |
| NCCCC[C@H](NC(=O)[C@H](CCCCN)NC(=O)[C@H](Cc1c[nH]cn1)NC(=O)[C@H](CCCCN)NC(=O)[C@H](CCCCN)NC(=O)[C@H](Cc1c[nH]cn1)NC(=O)[C@H](CCCCN)NC(=O)[C@H](CCCCN)NC(=O)[C@@H](N)Cc1c[nH]cn1)C(N)=O [(HKK)3] (H-HKKHKKHKK-NH2) | Tricophyton rubrum (KCTC 6345) | 32 |
